Below, each entry is listed alongside its reported inhibitory rate (%).
# Tested on: FLAP (5-lipoxygenase activating protein)
# assay.details: In vitro binding test: displacement of [3H]-7-chloro-3-(5-((3-fluoropyridin-2-yl)methoxy)-2-methylphenyl)-3,4-dihydroquinazolin-2(1H)-one from Sf9 microsome fractions
# Set-up: species or system human and mouse
# condition.details: Sf9 microsome fractions expressing FLAP; 100% = radioligand binding with 10 μM sodium 3-(3-(tert-butylsulfanyl)-1-(4-chlorobenzyl)-5-isopropyl-1H-indol-2-yl)-2,2-dimethylpropanoate, 0% = DMSO; test compound concentration not given
Quick note: give the figure in %, leave out the unit.

molecule | quantitative.readout
CCCCOC(=O)/C=C/c1ccc(OCc2ncccc2F)cc1N1Cc2ccccc2NC1=O | 100

Moving on to the next molecule.
Which inhibitory rate (%) is listed for `Cc1ccc(OCc2ncccc2F)cc1N1Cc2c(Cl)cccc2N(CC(N)=O)C1=O` ?
112
